meta.source: patent US20250074980A1

- system name: T1, His-tagged CEACAM1 (human, UniProt P13688 35-428)
- T1 construct: 45 kDa SPR analyte; also called CEACAM1-HIS; CEACAM1 analyte
- T1 sequence: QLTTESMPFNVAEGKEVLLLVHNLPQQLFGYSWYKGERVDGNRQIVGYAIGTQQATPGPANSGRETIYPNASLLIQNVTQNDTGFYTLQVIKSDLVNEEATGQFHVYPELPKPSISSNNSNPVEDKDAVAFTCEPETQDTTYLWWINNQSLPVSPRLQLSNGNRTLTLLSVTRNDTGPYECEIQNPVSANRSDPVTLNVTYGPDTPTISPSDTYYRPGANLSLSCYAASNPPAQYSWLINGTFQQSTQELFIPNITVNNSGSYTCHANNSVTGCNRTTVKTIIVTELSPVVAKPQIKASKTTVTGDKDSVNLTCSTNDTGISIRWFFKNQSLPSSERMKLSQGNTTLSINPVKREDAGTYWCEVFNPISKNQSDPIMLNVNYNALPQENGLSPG
- experiment description: SPR single-cycle, supernatant IgG captured
Below, each entry is listed alongside its reported kon.
Give the quantity in M⁻¹ s⁻¹, number only.

See these solved cases before continuing.
{"columns": ["binder", "assay endpoint", "recorded value"],
 "data": [
  ["9B3_9E5/Vκ8 S29A (antibody, IgG4, V domains shown, IgG4 (S241P), kappa) VH: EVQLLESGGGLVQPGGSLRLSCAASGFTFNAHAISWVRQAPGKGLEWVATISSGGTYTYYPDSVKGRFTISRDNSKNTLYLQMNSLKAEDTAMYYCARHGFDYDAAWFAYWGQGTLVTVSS VL: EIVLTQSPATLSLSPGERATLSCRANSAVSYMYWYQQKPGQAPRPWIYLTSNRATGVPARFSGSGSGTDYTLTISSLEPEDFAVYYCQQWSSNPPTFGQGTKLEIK", "kon", 140000],
  ["8H3_9C2/CP08E05 (antibody, IgG4, V domains shown, IgG4 (S241P), kappa) VH: EVQLLESGGGLVQPGGSLRLSCAASEFTFSDHAMSWVRQAPGKGLEWVATISSGGTYTYYPDSVKGRFTISRDNSKNTLYLQMNSLKAEDTAMYYCARHGFDYFPYWFAHWGQGTLVTVSS VL: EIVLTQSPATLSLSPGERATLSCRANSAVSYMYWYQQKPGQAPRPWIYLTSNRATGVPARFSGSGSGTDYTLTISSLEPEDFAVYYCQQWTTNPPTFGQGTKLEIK", "kon", 67000]
]}

Proceeding to the next binder to report its kon.
[Q] # query: kon of entry 8H3_9C2/CP08F05 (antibody, IgG4, V domains shown, IgG4 (S241P), kappa; also called 8H3_9C2/CPO08_F05) VH: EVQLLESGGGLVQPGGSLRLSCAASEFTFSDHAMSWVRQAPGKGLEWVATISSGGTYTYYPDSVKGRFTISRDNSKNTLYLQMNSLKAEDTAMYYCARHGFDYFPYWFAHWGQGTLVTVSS VL: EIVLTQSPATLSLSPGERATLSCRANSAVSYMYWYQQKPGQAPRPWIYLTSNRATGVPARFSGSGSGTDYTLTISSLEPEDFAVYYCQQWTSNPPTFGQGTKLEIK
[A] 66000
